Values compiled from ChEMBL document CHEMBL1138169.

# protocol-description: Cmax in mouse at 60 mg/kg, ip
# Type: ADME, organism-based
# Design: dose 60 mg/kg, route intraperitoneal
# condition-set: in vivo
quantity-kind: Cmax (µM)

compound	unit-label	Cmax
c1cnc(NCC2CCCO2)c(-c2nnc(Nc3ccc4c(c3)OCCO4)o2)c1 (stereo not drawn)	µM	16.4
c1cnc(NCc2ccncc2)c(-c2nnc(Nc3ccc4c(c3)OCO4)o2)c1	µM	15.1
c1ccc(CNc2ccccc2-c2nnc(Nc3ccc4c(c3)OCCO4)o2)nc1	µM	6.4

P. c1ccc(CNc2ncccc2-c2nnc(Nc3ccc4c(c3)OCCO4)o2)nc1
Q. c1ccc(CNc2ccccc2-c2cnc(Nc3ccc4c(c3)OCCO4)o2)nc1
R. COc1cc(Nc2ncccc2-c2n[nH]c(Nc3ccc4c(c3)OCO4)n2)cc(OC)c1
Order the entries by their reported Cmax, beginning at the minimum. Please respond with the labels ordered as the question requires.
Q, R, P
(Q: 4.6 µM, R: 7.3 µM, P: 12.5 µM)
